# System: BaF3
# EXPERIMENT DESCRIPTION: Antiproliferative activity against mouse BaF3 cells harbouring FLT3-D835Y mutant assessed as inhibition of cell growth incubated for 72 hrs by celltiter-glo luminescent cell viability assay
# Type: functional, cell-based
# APPLIED CONDITIONS: BaF3, 72 h
REPORTED PROPERTY: IC50 (nM)

(I) CC(C)(C)c1cc(NC(=O)Nc2ccc(-c3cn4c(n3)sc3cc(OCCN5CCOCC5)ccc34)cc2)no1
(II) CC(C)(C)c1cc(NC(=O)Nc2ccc(C#Cc3ccc(OCCCN4CCOCC4)cc3)cc2)no1
Smaller IC50 value, I vs II ? Your answer should be the label of the entry you select.
I

* * *

# EXPERIMENT DESCRIPTION: Half life in rat plasma at 5 mg/kg, po measured up to 24 hrs by LC-MS/MS analysis
# Assay type: ADME, organism-based
REPORTED PROPERTY: half-life (h)

SUBSTANCE SMILES	half-life [h]
COc1cc(C#Cc2ccc(NC(=O)Nc3cc(C(C)(C)C)on3)cc2)ccc1OCCCN1CCOCC1	3.55

(P) CC(C)(C)c1cc(NC(=O)Nc2ccc(C#Cc3ccc(OCCN4C[C@@H]5OCCO[C@@H]5C4)cc3)cc2)no1
(Q) CC(C)(C)c1cc(NC(=O)Nc2ccc(C#Cc3ccc(OCCCN4CCOCC4)cc3F)cc2)no1
(R) CN1CCN(CCOc2ccc(C#Cc3ccc(NC(=O)Nc4cc(C(C)(C)C)on4)cc3)cc2)CC1
Ranking field: half-life; order: falling. A complete answer lists every label in the requested sequence.
Q, P, R

* * *

# EXPERIMENT DESCRIPTION: AUClast in rat plasma at 5 mg/kg, po measured up to 24 hrs by LC-MS/MS analysis
# Type: ADME, organism-based
REPORTED PROPERTY: AUC(0-t) at 24 h (µg·h/mL)

Field: example entries. Status: answers known.
MOLECULE	REPORTED MEASUREMENT
CN1CCN(CCOc2ccc(C#Cc3ccc(NC(=O)Nc4cc(C(C)(C)C)on4)cc3)cc2)CC1	0.534
CC(C)(C)c1cc(NC(=O)Nc2ccc(-c3cn4c(n3)sc3cc(OCCN5CCOCC5)ccc34)cc2)no1 [QUIZARTINIB]	6.32
CC(C)(C)c1cc(NC(=O)Nc2ccc(C#Cc3ccc(OCCCN4CCOCC4)cc3)cc2)no1	8.31
COc1cc(C#Cc2ccc(NC(=O)Nc3cc(C(C)(C)C)on3)cc2)ccc1OCCCN1CCOCC1	1.27

(I) CC(C)(C)c1cc(NC(=O)Nc2ccc(C#Cc3ccc(OCCN4CCOCC4)cc3)cc2)no1
(II) CN1CCN(CCCOc2ccc(C#Cc3ccc(NC(=O)Nc4cc(C(C)(C)C)on4)cc3)cc2)CC1
(III) CC(C)(C)c1cc(NC(=O)Nc2ccc(C#Cc3ccc(OCCCN4CCOCC4)cc3F)cc2)no1
(IV) CC(C)(C)c1cc(NC(=O)Nc2ccc(C#Cc3ccc(OCCN4C[C@@H]5OCCO[C@@H]5C4)cc3)cc2)no1
Could you please sort these 4 entries by AUC(0-t) at 24 h from high to low? To answer, arrange all of the labels according to the requested order.
III, IV, I, II

* * *

# EXPERIMENT DESCRIPTION: Half life in rat plasma at 5 mg/kg, po measured up to 24 hrs by LC-MS/MS analysis
# Assay type: ADME, organism-based
REPORTED PROPERTY: half-life (h)

SUBSTANCE SMILES	VALUE UNIT	half-life
CN1CCN(CCCOc2ccc(C#Cc3ccc(NC(=O)Nc4cc(C(C)(C)C)on4)cc3)cc2)CC1	h	5.15
CC(C)(C)c1cc(NC(=O)Nc2ccc(-c3cn4c(n3)sc3cc(OCCN5CCOCC5)ccc34)cc2)no1	h	5.22
CC(C)(C)c1cc(NC(=O)Nc2ccc(C#Cc3ccc(OCCCN4CCOCC4)cc3)cc2)no1	h	4.45
CC(C)(C)c1cc(NC(=O)Nc2ccc(C#Cc3ccc(OCCN4CCOCC4)cc3)cc2)no1	h	4.84
